- measured on: human JAK3 (a.a. 781-1124) (Homo sapiens, UniProt P52333)
- Construct: JAK3 (a.a. 781-1124); His tag (N); made in house; host or cells: insect cells (baculovirus)
- Sequence (P52333 781-1124): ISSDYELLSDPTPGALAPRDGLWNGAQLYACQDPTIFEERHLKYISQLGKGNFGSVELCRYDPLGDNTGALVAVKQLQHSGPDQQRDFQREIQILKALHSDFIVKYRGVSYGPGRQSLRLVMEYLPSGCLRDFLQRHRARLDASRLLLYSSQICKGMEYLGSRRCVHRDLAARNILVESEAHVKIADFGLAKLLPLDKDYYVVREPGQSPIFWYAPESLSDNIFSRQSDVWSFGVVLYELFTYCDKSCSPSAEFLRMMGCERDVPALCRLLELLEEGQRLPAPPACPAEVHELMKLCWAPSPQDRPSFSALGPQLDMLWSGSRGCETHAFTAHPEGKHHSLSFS
- test method notes: In vitro JAK kinase assay (HTRF, phosphorylation of a biotinylated peptide), JAK3
- Type: biochemical
Structures can show the parent of a compound that is named as a salt.
Below, each entry is listed alongside its reported IC50.

Solved cases below.
O=C(Cc1coc2ccccc12)Nc1ccc2cc1CCc1cccc(c1)Nc1ncc(Cl)c(n1)N2 [Example C47, trifluoroacetate]
1140 nM
Fc1cnc2nc1Nc1cccc(c1)CCc1cccc(n1)N2
> 1000 nM
N#Cc1ccccc1S(=O)(=O)N1CCC(COc2ccc3cc2CCc2cncc(c2)Nc2ncc(Cl)c(n2)N3)C1 (stereo not drawn) [Example C57, bis(trifluoroacetate)]
> 400 nM
CCCC(=O)N1Cc2cccc(c2)Nc2ncc(Cl)c(n2)Nc2cccc1c2
> 10000 nM

Per the records, this compound ( Cc1cc(C(=O)N2CCC(CC(=O)Nc3ccc4cc3CCc3cccc(c3)Nc3ncc(C)c(n3)N4)CC2)no1 [Example C54, trifluoroacetate] ) has IC50 equal to > 200 nM

Per the records, this compound ( O=C1Cc2cccc(c2)Nc2ncc(Cl)c(n2)Nc2cccc(c2)N1 [Example C10, trifluoroacetate] ) has IC50 equal to > 1000 nM
